Test system: Ca-Ski
Experiment: cells
Assay type: functional, cell-based
Conditions: Homo sapiens, 72 h
Description: Antiproliferative activity against human Ca-Ski cells assessed as inhibition of cell growth incubated for 72 hrs by CellTiter-Glo luminescent cell viability assay
RECORDED_ENDPOINT: pIC50
Entry type: numeric. Quantity: pIC50, the -log10 of concentration in molar units.

Solved entries (count: 3):
Noted for CC(C)N1C(=O)C(Cc2cc(C(F)(F)F)cc(C(F)(F)F)c2)COC12C=CC(=O)C=C2 (stereo not given) : its pIC50 reads 6.13

So for O=C1C=CC2(C=C1)OCC(Cc1cc(C(F)(F)F)cc(C(F)(F)F)c1)C(=O)N2c1ccccc1 (stereo not given) , the logged pIC50 turned out to be 6.06

pIC50 reading for CN1C(=O)C(CCNc2cc(C(F)(F)F)cc(C(F)(F)F)c2)COC12C=CC(=O)C=C2 (stereo not given) : 6.10

***
Input CN1C(=O)C(C/C=N/n2c3ccccc3c3ccccc32)COC12C=CC(=O)C=C2 (stereo not given) . Output pIC50: 6.03

The reported pIC50 of the molecule CN1C(=O)C(CCO[Si](c2ccccc2)(c2ccccc2)C(C)(C)C)COC12C=CC(=O)C=C2 (stereo not given) was 6.75

----------
Test: Terminal half life in ICR mouse at 40 mg/kg, ip administered as vehicle 1 as DMSO/Cremophor EL/ PEG400/ DDW formulation measured upto 1440 mins by LC-MS/MS analysis
Assay type: ADME, organism-based
Details: in vivo, read-out: beta t1/2
RECORDED_ENDPOINT: half-life (h)
The reply should be a number in h, with the unit left off.

For reference, reported half-life for CN1C(=O)C(CCO[Si](c2ccccc2)(c2ccccc2)C(C)(C)C)COC12C=CC(=O)C=C2 (stereo unspecified) stands at 4.83

----------
Assay: AUCinfinity in ICR mouse at 40 mg/kg, ip administered as vehicle 2 as corn oil suspension measured upto 1440 mins by LC-MS/MS analysis
Format: ADME, organism-based
Design: time < 1440 min, dose 40 mg/kg, route ip
Settings: in vivo
RECORDED_ENDPOINT: AUC(0-inf) (ng·h/mL)
Number in ng·h/mL, nothing else.

Lookup result for CN1C(=O)C(CCO[Si](c2ccccc2)(c2ccccc2)C(C)(C)C)COC12C=CC(=O)C=C2 (stereo unspecified) ; measured AUC(0-inf): 3130

----------
Target: N-lysine methyltransferase SMYD2 (Homo sapiens, UniProt Q9NRG4)
Sequence (Q9NRG4 whole entry): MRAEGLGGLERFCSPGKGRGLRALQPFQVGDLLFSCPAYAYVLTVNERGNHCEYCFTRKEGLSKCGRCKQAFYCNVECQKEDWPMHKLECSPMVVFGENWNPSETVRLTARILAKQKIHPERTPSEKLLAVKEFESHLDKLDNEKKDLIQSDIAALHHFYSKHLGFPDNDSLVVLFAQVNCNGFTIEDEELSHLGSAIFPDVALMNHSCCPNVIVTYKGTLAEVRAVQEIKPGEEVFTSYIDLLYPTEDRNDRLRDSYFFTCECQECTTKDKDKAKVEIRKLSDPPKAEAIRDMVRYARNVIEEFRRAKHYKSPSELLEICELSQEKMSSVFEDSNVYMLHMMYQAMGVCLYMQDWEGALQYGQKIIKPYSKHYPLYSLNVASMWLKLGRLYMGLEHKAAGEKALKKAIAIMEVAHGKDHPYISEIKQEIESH
Assay: Inhibition of SMYD2 (unknown origin) assessed as residual activity at 10 uM using 3H-SAM as substrate incubated for 1 hr by filter binding method relative to control
Consider the following compounds and their measured Activity readings.
Write your answer as a measured quantity: the number, then the unit.

Query CC(C)N1C(=O)C(Cc2ccc(Cl)cc2)COC12C=CC(=O)C=C2 (stereo not given) yields Activity of 41.4%

What the record says about CN1C(=O)C(CCNc2cccnc2)COC12C=CC(=O)C=C2 (stereo not given) : Activity is 74.2%

According to the records, this compound CC(C)N1C(=O)C(Cc2c(F)cccc2C(F)(F)F)COC12C=CC(=O)C=C2 (stereo not given) displays Activity of 47.2%

For reference, reported Activity for CN1C(=O)C(C/C=N/n2c3ccccc3c3ccccc32)COC12C=CC(=O)C=C2 (stereo not given) stands at 19.9%

Record CN1C(=O)C(CCNc2cccc(Cc3ccccc3)c2)COC12C=CC(=O)C=C2 (stereo not given) . Reported Activity: 13.6%

More entries:
Activity reading for CC(C)N1C(=O)C(Cc2ccc([N+](=O)[O-])cc2)COC12C=CC(=O)C=C2 (stereo not given) : 66.7%

# Activity (compound: CC(C)N1C(=O)C(Cc2ccc(C(F)(F)F)cc2)COC12C=CC(=O)C=C2 (stereo not given) ) is 33.8%

Sure, the documented Activity for C=CCC1COC2(C=CC(=O)C=C2)N(C(C)C)C1=O (stereo not given) is 101%

# compound CN1C(=O)C(CCNc2ccc(F)cc2)COC12C=CC(=O)C=C2 (stereo not given) ; its Activity = 20.6%

The compound listed as CN1C(=O)C(CCNc2cnc3ccccc3c2)COC12C=CC(=O)C=C2 (stereo not given) has a reported Activity of 64.6%
